Biological target: 3-oxo-5-alpha-steroid 4-dehydrogenase 2 (Homo sapiens)
Experiment: Inhibition against 5 alpha R-2 in human prostate homogenate relative to finasteride
Assay type: tissue-based, Prostate gland
With a cut-off of 4 nM, any IC50 strictly below it is called label 1; any IC50 meeting it or above is called label 0.

Past entries and their recorded results:
compound="C[C@]12CC[C@H]3[C@@H](CCC4CC(=O)C=CN43)[C@@H]1CCC2=O (stereo partly specified)" class="label 1"
compound=C[C@]12CC[C@H]3[C@@H](CCC4=CC(=O)CCN43)[C@@H]1CCC2=O class="label 1"
compound="C[C@]12CC=C3[C@@H](CCC4=CC(=O)CCN43)C1CC[C@@H]2O.C[C@]12CCC3=C(CCC4=CC(=O)CCN43)C1CC[C@@H]2O (stereo partly specified)" class="label 1"

Query :: Please let me know if C[C@]12CC=C3C4=C(CCC3[C@@H]1CCC2=O)NCCC4=O.C[C@]12CCC3=C(CCC4=C3C(=O)CCN4)[C@@H]1CCC2=O (stereo in doubt; 27c) shows IC50 below 4 nM.
Result :: label 0

Query :: Please let me know if C=CC(=O)/C=C1/CCC2=C(CC[C@]3(C)C(=O)CC[C@@H]23)N1.C=CC(=O)/C=C1/CCC2C(=CC[C@]3(C)C(=O)CC[C@@H]23)N1 (stereo partly specified) shows IC50 below 4 nM.
Result :: label 0

Query :: Please let me know if `CC(C)(C)NC(=O)[C@H]1CC[C@H]2[C@@H]3CCC4=CC(=O)CCN4[C@H]3CC[C@]12C` shows IC50 below 4 nM.
Result :: label 0

Query :: Please let me know if `C[C@]12CC[C@H]3[C@@H](CCC4=CC(=O)CCN43)[C@@H]1CC[C@@H]2O` shows IC50 below 4 nM.
Result :: label 1

Query :: Please let me know if `C[C@]12CC[C@H]3[C@@H](CC[C@H]4CC(=O)CCN43)[C@@H]1CCC2=O` shows IC50 below 4 nM.
Result :: label 1

Query :: Please let me know if C[C@]12CC=C3C4=C(CCC3[C@@H]1CCC2=O)NCCC4=O.C[C@]12CCC3=C(CCC4=C3C(=O)CCN4)[C@@H]1CCC2=O (stereo in doubt; 27b) shows IC50 below 4 nM.
Result :: label 1

Query :: Please let me know if C[C@]12CC=C3[C@@H](CCC4=CC(=O)CCN43)C1CCC2=O.C[C@]12CCC3=C(CCC4=CC(=O)CCN43)C1CCC2=O (stereo in doubt; 4a) shows IC50 below 4 nM.
Result :: label 1

###

Target: 3-oxo-5-alpha-steroid 4-dehydrogenase 2 (Homo sapiens)
Sequence (P31213 whole entry): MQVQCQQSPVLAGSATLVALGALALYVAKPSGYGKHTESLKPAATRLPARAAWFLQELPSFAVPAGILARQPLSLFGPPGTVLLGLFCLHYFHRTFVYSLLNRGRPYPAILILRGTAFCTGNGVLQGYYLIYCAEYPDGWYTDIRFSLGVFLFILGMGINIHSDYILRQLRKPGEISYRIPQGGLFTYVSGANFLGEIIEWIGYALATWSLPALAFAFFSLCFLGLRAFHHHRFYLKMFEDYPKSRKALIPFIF
Assay: Tested against 5 alpha R-2 on human prostate homogenate from surgically derived benign hyperplastic tissue in experiment 3
Type: tissue-based, Prostate gland
Test readout: IC50 (nM)
# number only, unit nM dropped from output

Query :: Dear colleague, I am looking for the recorded IC50 of the following compound: CC(C)(C)NC(=O)[C@H]1CC[C@H]2C3=C(CC[C@]12C)N1CCC(=O)C=C1CC3.CC(C)(C)NC(=O)[C@H]1CC[C@H]2C3CCC4=CC(=O)CCN4C3=CC[C@]12C (stereo partly specified)
Result :: 150

###

Biological target: 3-oxo-5-alpha-steroid 4-dehydrogenase 2 (Homo sapiens)
Assay: TInhibitory activity against 5-alpha Reductase-2 on human prostate homogenates from surgically derived benign hyperplastic tissue in experiment 2
Assay type: tissue-based, Prostate gland
Test readout: IC50 (nM)
# number only, unit nM dropped from output

Query :: Dear colleague, I am looking for the recorded IC50 of the following compound: CC(C)(C)NC(=O)[C@H]1CC[C@H]2C3=C(CC[C@]12C)N1CCC(=O)C=C1CC3.CC(C)(C)NC(=O)[C@H]1CC[C@H]2C3CCC4=CC(=O)CCN4C3=CC[C@]12C (stereo partly specified)
Result :: 122

###

Molecular target: 3-oxo-5-alpha-steroid 4-dehydrogenase 2 (Homo sapiens)
Assay: Inhibitory activity against 5-alpha Reductase-2 on human prostate homogenates from surgically derived benign hyperplastic tissue
Assay type: tissue-based, Prostate gland
Test readout: IC50

Previously resolved entries follow.
compound="C[C@]12CC[C@H]3[C@@H](CCC4CC(=O)C=CN43)[C@@H]1CCC2=O (stereo not given in full)" test_readout=IC50 measured="46 µM"
compound="C=CC(=O)/C=C1/CCC2=C(CC[C@]3(C)C(=O)CC[C@@H]23)N1.C=CC(=O)/C=C1/CCC2C(=CC[C@]3(C)C(=O)CC[C@@H]23)N1 (stereo not given in full)" test_readout=IC50 measured="> 100 µM"
compound=CC(C)(C)NC(=O)[C@H]1CC[C@H]2[C@@H]3CCC4=CC(=O)CCN4[C@H]3CC[C@]12C test_readout=IC50 measured="0.46 µM"

Query :: Form field - read-out: IC50; system: 3-oxo-5-alpha-steroid 4-dehydrogenase 2 (Homo sapiens); submitted item: `C[C@]12CC[C@H]3[C@@H](CCC4=CC(=O)CCN43)[C@@H]1CCC2=O`
Result :: 4.4 µM

Query :: Form field - read-out: IC50; system: 3-oxo-5-alpha-steroid 4-dehydrogenase 2 (Homo sapiens); submitted item: `C[C@]12CC[C@H]3[C@@H](CC[C@H]4CC(=O)CCN43)[C@@H]1CCC2=O`
Result :: > 100 µM

Query :: Form field - read-out: IC50; system: 3-oxo-5-alpha-steroid 4-dehydrogenase 2 (Homo sapiens); submitted item: C[C@]12CC=C3C4=C(CCC3[C@@H]1CCC2=O)NCCC4=O.C[C@]12CCC3=C(CCC4=C3C(=O)CCN4)[C@@H]1CCC2=O (stereo in doubt; 27c)
Result :: > 100 µM

Query :: Form field - read-out: IC50; system: 3-oxo-5-alpha-steroid 4-dehydrogenase 2 (Homo sapiens); submitted item: C[C@]12CC=C3[C@@H](CCC4=CC(=O)CCN43)C1CC[C@@H]2O.C[C@]12CCC3=C(CCC4=CC(=O)CCN43)C1CC[C@@H]2O (stereo not given in full)
Result :: 2.9 µM

Query :: Form field - read-out: IC50; system: 3-oxo-5-alpha-steroid 4-dehydrogenase 2 (Homo sapiens); submitted item: C[C@]12CC=C3[C@@H](CCC4=CC(=O)CCN43)C1CCC2=O.C[C@]12CCC3=C(CCC4=CC(=O)CCN43)C1CCC2=O (stereo in doubt; 4a:4b(5:1))
Result :: 4.6 µM

Query :: Form field - read-out: IC50; system: 3-oxo-5-alpha-steroid 4-dehydrogenase 2 (Homo sapiens); submitted item: `C[C@]12CC[C@H]3[C@@H](CCC4=CC(=O)CCN43)[C@@H]1CC[C@@H]2O`
Result :: 4.2 µM

Query :: Form field - read-out: IC50; system: 3-oxo-5-alpha-steroid 4-dehydrogenase 2 (Homo sapiens); submitted item: CC(C)(C)NC(=O)[C@H]1CC[C@H]2[C@@H]3CC[C@H]4NC(=O)C=C[C@]4(C)[C@H]3CC[C@]12C [FINASTERIDE]
Result :: 0.003 µM

###

Target: 3-oxo-5-alpha-steroid 4-dehydrogenase 2 (Homo sapiens, UniProt P31213)
Sequence (P31213 whole entry): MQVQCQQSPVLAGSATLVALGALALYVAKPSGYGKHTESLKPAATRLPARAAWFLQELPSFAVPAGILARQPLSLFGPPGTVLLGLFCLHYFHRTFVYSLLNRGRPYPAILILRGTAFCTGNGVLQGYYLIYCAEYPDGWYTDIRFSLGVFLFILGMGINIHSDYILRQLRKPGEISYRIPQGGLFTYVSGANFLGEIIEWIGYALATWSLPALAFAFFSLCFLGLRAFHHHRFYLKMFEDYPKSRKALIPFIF
Assay: Inhibitory activity against 5-alpha Reductase-2 on human prostate homogenates from surgically derived benign hyperplastic tissue in experiment 1
Assay type: tissue-based, Prostate gland
Test readout: IC50 (µM)
# number only, unit µM dropped from output

Query :: Dear colleague, I am looking for the recorded IC50 of the following compound: CC(C)(C)NC(=O)[C@H]1CC[C@H]2C3=C(CC[C@]12C)N1CCC(=O)C=C1CC3.CC(C)(C)NC(=O)[C@H]1CC[C@H]2C3CCC4=CC(=O)CCN4C3=CC[C@]12C (stereo partly specified)
Result :: 0.037

###

Target: 3-oxo-5-alpha-steroid 4-dehydrogenase 2 (Homo sapiens, UniProt P31213)
Sequence (P31213 whole entry): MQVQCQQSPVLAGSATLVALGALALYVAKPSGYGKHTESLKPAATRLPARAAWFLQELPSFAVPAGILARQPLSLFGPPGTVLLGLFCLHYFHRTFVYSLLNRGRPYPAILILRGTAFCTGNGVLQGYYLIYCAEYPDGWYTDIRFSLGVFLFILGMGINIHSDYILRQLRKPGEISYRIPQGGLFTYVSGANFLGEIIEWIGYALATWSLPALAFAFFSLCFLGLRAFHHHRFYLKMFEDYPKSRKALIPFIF
Test: Tested against 5 alpha R-2 on human prostate homogenate from surgically derived benign hyperplastic tissue in experiment 1
Format: tissue-based, Prostate gland
Test readout: pIC50
pIC50 here: minus log base 10 of the concentration, concentration in moles per litre.

Query :: Form field - read-out: pIC50; system: 3-oxo-5-alpha-steroid 4-dehydrogenase 2 (Homo sapiens, UniProt P31213); submitted item: CC(C)(C)NC(=O)[C@H]1CC[C@H]2C3=C(CC[C@]12C)N1CCC(=O)C=C1CC3.CC(C)(C)NC(=O)[C@H]1CC[C@H]2C3CCC4=CC(=O)CCN4C3=CC[C@]12C (stereo partly specified)
Result :: 7.99
